- Tested on: murine lymphocytes (sheep red blood cells as antigen)
- TEST_DETAILS: Antigen-specific adjuvanticity: direct anti-SRBC plaque forming cells, murine system
- Type: cell-based, mouse
- ASSAY_SETUP: Table 9; murine; * = single study

| COMPOUND | Average 1 Log Plaque Values |
| --- | --- |
| Cn1c(=O)n([C@@H]2O[C@H](CO)[C@@H](O)[C@H]2O)c2nc(N)[nH]c(=O)c21 [7m8oGuo, 7-methyl-8-oxoguanosine, reference compound] | 22,359 ± 5154 per micromole |
| C=CCn1c(=O)n([C@@H]2O[C@H](CO)[C@@H](O)[C@H]2O)c2nc(N)[nH]c(=O)c21 [7a8oGuo, 7-(2-Propenyl)-8-oxoguanosine] | 98,237 ± 42,041 per micromole |
| Nc1nc2c(c(=O)[nH]1)n(Cc1ccccc1)c(=O)n2[C@@H]1O[C@H](CO)[C@@H](O)[C@H]1O [compound 24234, 7-Benzyl-8-oxoguanosine] | 110,777 ± 42,823 per micromole |
| CCCCn1c(=O)n([C@@H]2O[C@H](CO)[C@@H](O)[C@H]2O)c2nc(N)[nH]c(=O)c21 [compound 23644, 7-Butyl-8-oxoguanosine] | 118,886 ± 80,092 per micromole |
| C=CCn1c(=S)n([C@@H]2O[C@H](COC(C)=O)[C@@H](OC(C)=O)[C@H]2OC(C)=O)c2nc(N)[nH]c(=O)c21 [compound 22360] | 53,695 ± 28,444 per micromole |
| CC=CCn1c(=O)n([C@@H]2O[C@H](CO)[C@@H](O)[C@H]2O)c2nc(N)[nH]c(=O)c21 [compound 23679, 7-(2-Butenyl)-8-oxoguanosine] | 52,332 per micromole |
| C=CCn1c(=S)n([C@@H]2O[C@H](CO)[C@@H](O)[C@H]2O)c2nc(N)[nH]c(=O)c21 [7a8MGuo, 7-(2-Propenyl)-8-thioxoguanosine] | 326,840 ± 170,907 per micromole |

====

- System: human peripheral blood lymphocytes (sheep red blood cells as antigen)
- TEST_DETAILS: Antigen-specific adjuvanticity: direct anti-SRBC plaque forming cells, human system
- Type: cell-based
- ASSAY_SETUP: Table 9; human; * = single study
TEST_READOUT: Average 1 Log Plaque Values

| MOLECULE | VALUE_REPORTED |
| --- | --- |
| C=CCn1c(=O)n([C@@H]2O[C@H](CO)[C@@H](O)[C@H]2O)c2nc(N)[nH]c(=O)c21 | 22,640 ± 4187 per micromole |
| C=CCn1c(=S)n([C@@H]2O[C@H](COC(C)=O)[C@@H](OC(C)=O)[C@H]2OC(C)=O)c2nc(N)[nH]c(=O)c21 | 38,508 ± 26,802 per micromole |
| C=CCn1c(=S)n([C@@H]2O[C@H](CO)[C@@H](O)[C@H]2O)c2nc(N)[nH]c(=O)c21 | 45,630 ± 28,808 per micromole |
| Cn1c(=O)n([C@@H]2O[C@H](CO)[C@@H](O)[C@H]2O)c2nc(N)[nH]c(=O)c21 [7m8oGuo, 7-methyl-8-oxoguanosine, reference compound] | 867 ± 217 per micromole |
| CCCCn1c(=O)n([C@@H]2O[C@H](CO)[C@@H](O)[C@H]2O)c2nc(N)[nH]c(=O)c21 | 52,397 per micromole |
